Cited source for all entries: PubChem BioAssay AID1486

- ASSAY DETAILS: parental Ba/F3 cell viability inhibition, counter-screen for JAK2V617F inhibitor project, murine pro-B, CellTiter-Glo luminescence (AID 1486);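 note: 0% = DMSO wells and 100% = JAK Inhibitor I control wells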
- RUN PARAMETERS: CellTiter-Glo ATP luminescence, at 5.6 µM
The whole screen tested about 220,000 compounds, of which about 2,400 (1.1%) were called active.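 Rule for the calls: active = inhibition above a per-campaign cutoff, the mean inhibition of all tested compounds plus 3 SD (cut at about 27% in these data); inactive = the rest.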 Shown is part of a subset that was picked to be rich in actives.
The categories you may choose from are 1 for active, -1 for inactive

- MOLECULE: "Cc1ccc(-c2nn(-c3cccc(F)c3)cc2CNCCc2ccncc2)o1"
  ANSWER LABEL: 1
- MOLECULE: "Cc1nc(/N=C(\\N)NC(=O)NC2CCCCC2)nc2ccccc12"
  ANSWER LABEL: -1
- MOLECULE: "CC(C)(C)SCCNC(=O)c1cccc([N+](=O)[O-])c1"
  ANSWER LABEL: -1
- MOLECULE: "CC1CCN(C(=O)c2ccc(S(=O)(=O)Cc3cc(F)ccc3F)c([N+](=O)[O-])c2)CC1"
  ANSWER LABEL: -1
- MOLECULE: "Cc1cc(=O)[nH]c(SCC(=O)Nc2ccc(Br)cc2)n1"
  ANSWER LABEL: -1
- MOLECULE: "CC1(C)CC(=O)C/C(=N\\NC(=O)c2cccs2)C1"
  ANSWER LABEL: -1

Problem: Kindly provide the recorded test outcome for the following molecule: O=C(c1ccc(Cl)cc1)N1N=C(c2ccccn2)CC1(O)C(F)(F)F (configuration not stated)
Result: -1

Problem: Kindly provide the recorded test outcome for the following molecule: "CCOC(=O)C1(S(=O)(=O)c2ccccc2)CCN(Cc2ccccc2)CC1"
Result: -1

Problem: Kindly provide the recorded test outcome for the following molecule: COc1ccc(NC(=O)C(CC(C)C)NS(=O)(=O)c2ccc3c(c2)CCN3C(C)=O)cc1OC (configuration not stated)
Result: -1

Problem: Kindly provide the recorded test outcome for the following molecule: "Cc1ccc(S(=O)(=O)CC(=O)Nc2c(C)n(C)n(-c3ccccc3)c2=O)cc1"
Result: -1

Problem: Kindly provide the recorded test outcome for the following molecule: "Cc1ccc(CC(=O)Nc2cccc(C#N)c2)cc1"
Result: -1

Problem: Kindly provide the recorded test outcome for the following molecule: "CC1=C/C(=N\S(=O)(=O)c2ccccc2)C(C(C)C)=CC1=O"
Result: -1

Problem: Kindly provide the recorded test outcome for the following molecule: "Cc1noc(C)c1C(=O)OCC(=O)/C=C1\N(C)c2ccccc2C1(C)C"
Result: -1

Problem: Kindly provide the recorded test outcome for the following molecule: "Cn1c(=O)c2c(nc(N/N=C/c3cccs3)n2Cc2ccc(Br)cc2)n(C)c1=O"
Result: -1

Problem: Kindly provide the recorded test outcome for the following molecule: "Cc1nc(-c2ccccc2)cn2c1nc1ccccc12"
Result: -1

Problem: Kindly provide the recorded test outcome for the following molecule: "COc1ccc2nc(/N=C(\N)NC(=O)Nc3ccccc3)nc(C)c2c1"
Result: 1

Problem: Kindly provide the recorded test outcome for the following molecule: "CCn1c(SCC(=O)Nc2ccc(C)cc2)nc2nc3c(cc2c1=O)CCCC3"
Result: -1

====

- ASSAY DETAILS: parental Ba/F3 cell viability inhibition, counter-screen for JAK2V617F inhibitor project, murine pro-B, CellTiter-Glo luminescence (AID 1486);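 note: 0% = DMSO wells and 100% = JAK Inhibitor I control wells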
- RUN PARAMETERS: CellTiter-Glo ATP luminescence, at 5.6 µM
About 2,400 (1.1%) of roughly 220,000 compounds were called active.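 The calls were made as follows: active = inhibition above a per-campaign cutoff, the mean inhibition of all tested compounds plus 3 SD (cut at about 27% in these data); inactive = the rest.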 The full list was thinned out, with actives kept by preference.
The categories you may choose from are Y = active, N = inactive

These recorded examples may help you get a feel for the data.
- COMPOUND: "Cc1ccc(C2CC(=O)NC(SCC(=O)OCc3ccccc3)=C2C#N)o1 (stereo unspecified)"
  ANSWER LABEL: "N"
- COMPOUND: "COc1ccc(CS(=O)/C(Cl)=C(/Cl)C(=O)Nc2ccc(OC)nc2)cc1 (stereo unspecified)"
  ANSWER LABEL: "Y"
- COMPOUND: "Nc1ccc(C(=O)OCC(=O)NC2CCS(=O)(=O)C2)cc1[N+](=O)[O-] (stereo unspecified)"
  ANSWER LABEL: "N"
- COMPOUND: "COc1ccc(N2C(=O)CNC2=S)cc1"
  ANSWER LABEL: "N"
- COMPOUND: "Cc1cc(NC(=O)CN2C(=O)NC(C)(CCc3ccccc3)C2=O)no1 (stereo unspecified)"
  ANSWER LABEL: "N"
- COMPOUND: "Cc1ccc(CN(C)CC(=O)Nc2cccc([N+](=O)[O-])c2)o1"
  ANSWER LABEL: "N"
- COMPOUND: "CCOC(=O)c1ccc(NNC(C)=O)c([N+](=O)[O-])c1"
  ANSWER LABEL: "N"
- COMPOUND: "CCCC(=O)Nc1nc2ccc(NC(=O)c3cccnc3)cc2s1"
  ANSWER LABEL: "N"
- COMPOUND: "CCOC(=O)c1ccccc1NS(=O)(=O)c1ccc(OC)cc1"
  ANSWER LABEL: "N"
- COMPOUND: "COc1cccc(Nc2nnc(SCC(=O)N3CC(=O)Nc4ccccc43)s2)c1"
  ANSWER LABEL: "N"

Then there is this compound:
Problem: Kindly provide the recorded test outcome for the following compound: "O=C(Nc1nc2ccc([N+](=O)[O-])cc2s1)c1ccncc1"
Result: N
